Below, each entry is listed alongside its reported Plant response rating, Wheat.
Tested on: wheat (Triticum aestivum)
Assay: Test A postemergence, wheat
Assay type: in vivo
Details: Postemergence, 500 g ai/ha; visual injury, 0 to 100 scale (0 no effect, 100 complete control), approx. 10 days
recorded.metric: Plant response rating, Wheat

compound: COc1cnn(-c2cc(N(S(=O)(=O)C(F)(F)F)S(=O)(=O)C(F)(F)F)c(C)cc2C)c(=O)c1OC [Compound 40]
recorded.metric: Plant response rating, Wheat
val: 40
--
compound: Cc1cc(C)c(N(S(C)(=O)=O)S(=O)(=O)C(F)(F)F)cc1-c1cc(C(C)C)nn(C)c1=O [Compound 39]
recorded.metric: Plant response rating, Wheat
val: 60
--
compound: Cc1cc(C)c(C(=O)N2CC(C)OC(C)C2)cc1NS(=O)(=O)C(F)(F)F (stereo not shown) [Compound 9]
recorded.metric: Plant response rating, Wheat
val: 70
--
compound: Cc1cc(Br)c(NS(=O)(=O)C(F)(F)F)cc1C(=O)N1CCOCC1 [Compound 14]
recorded.metric: Plant response rating, Wheat
val: 70

----------
System: Foxtail, Giant (giant foxtail, Setaria faberi)
Assay: Test A preemergence, Foxtail, Giant
Type: in vivo
Settings: Preemergence, 1000 g ai/ha; 0 to 100 scale (0 no effect, 100 complete control)
recorded.metric: Plant response rating, Foxtail, Giant

line.notation: COC(=O)C1CCN(C(=O)c2cc(NS(=O)(=O)C(F)(F)F)c(C)cc2C)CC1
recorded.metric: Plant response rating, Foxtail, Giant
val: 100
--
line.notation: Cc1ccc(C(=O)N2CCC(C(F)(F)F)CC2)cc1NS(=O)(=O)C(F)(F)F
recorded.metric: Plant response rating, Foxtail, Giant
val: 70
--
line.notation: Cc1ccc(C(=O)N2CCCCC2)cc1NS(=O)(=O)C(F)(F)F
recorded.metric: Plant response rating, Foxtail, Giant
val: 90

----------
Tested on: pigweed (Amaranthus retroflexus)
Assay: Test A postemergence, pigweed
Type: in vivo
Conditions: Postemergence, 500 g ai/ha; visual injury approx. 10 days; 0 to 100 scale (0 no effect, 100 complete control)
Excerpt: Seeds of plant species selected from barnyardgrass (Echinochloa crus-galli), kochia (Bassia scoparia), ragweed (common ragweed, Ambrosia artemisiifolia), Ryegrass, Italian (Italian ryegrass, Lolium multiflorum), Foxtail, Giant (giant foxtail, Setaria faberi), and pigweed (Amaranthus retroflexus) were planted into a blend of loam soil and sand and treated preemergence with a directed soil spray using test chemicals formulated in a non-phytotoxic solvent mixture which included a surfactant. […]
Measured Plant response rating, Pigweed, listed per entry.

line.notation: Cc1cc(C)c(N2CC3(CCCCC3)OC2=O)cc1NS(=O)(=O)C(F)(F)F
Plant response rating, Pigweed: 80
//
line.notation: Cc1cc(C)c(N2CCC3(CCCC3)C2=O)cc1NS(=O)(=O)C(F)(F)F
Plant response rating, Pigweed: 90
//
line.notation: Cc1cc(Cl)c(C(=O)N2CCOCC2)cc1N(S(=O)(=O)C(F)(F)F)S(=O)(=O)C(F)(F)F
Plant response rating, Pigweed: 90
//
line.notation: Cc1cc(C)c(N(S(=O)(=O)C(F)(F)F)S(=O)(=O)C(F)(F)F)cc1N1CC2(CCCCC2)OC1=O
Plant response rating, Pigweed: 70
//
line.notation: Cc1cc(Cl)c(C(=O)N(C)C)cc1N(S(=O)(=O)C(F)(F)F)S(=O)(=O)C(F)(F)F
Plant response rating, Pigweed: 80
//
line.notation: Cc1cc(Cl)c(C(=O)N2CCCCC2)cc1NS(=O)(=O)C(F)(F)F
Plant response rating, Pigweed: 80
//
line.notation: Cc1cc(F)c(C(=O)N2CCOCC2)cc1NS(=O)(=O)C(F)(F)F
Plant response rating, Pigweed: 50
